The origin of these recorded values is patent US10273222B2.

targetOfAssay: FBXL10 (Homo sapiens (Human), UniProt Q8NHM5)
Sequence (Q8NHM5 1-650): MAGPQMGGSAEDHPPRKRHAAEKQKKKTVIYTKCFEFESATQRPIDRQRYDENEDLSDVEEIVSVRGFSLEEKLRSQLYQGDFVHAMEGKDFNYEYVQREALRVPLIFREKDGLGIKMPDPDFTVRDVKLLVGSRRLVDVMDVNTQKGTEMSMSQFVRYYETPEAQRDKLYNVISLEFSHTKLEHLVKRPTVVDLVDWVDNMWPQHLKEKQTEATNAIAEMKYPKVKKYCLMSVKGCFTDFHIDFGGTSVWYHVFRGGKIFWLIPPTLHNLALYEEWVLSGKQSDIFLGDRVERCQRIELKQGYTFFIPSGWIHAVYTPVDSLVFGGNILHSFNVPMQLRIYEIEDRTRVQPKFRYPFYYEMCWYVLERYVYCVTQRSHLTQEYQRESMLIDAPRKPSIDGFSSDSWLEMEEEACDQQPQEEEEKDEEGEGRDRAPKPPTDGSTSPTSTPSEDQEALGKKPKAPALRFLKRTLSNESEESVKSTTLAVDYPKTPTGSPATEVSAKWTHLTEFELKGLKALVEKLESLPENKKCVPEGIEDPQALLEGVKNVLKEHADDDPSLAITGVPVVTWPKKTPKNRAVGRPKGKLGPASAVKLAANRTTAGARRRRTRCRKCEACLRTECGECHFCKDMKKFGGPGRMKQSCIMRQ
measuredQuantity: IC50

Qu. Quick one: IC50 of O=C(O)c1ccnc(-c2cn(C3CCNC3)cn2)c1 (stereo not drawn) [Example 52] ?
Ans. 100 to 1000 nM

Qu. What about this compound? O=C(O)c1ccnc(-c2cn(Cc3ccccc3F)cn2)c1 [Example 102]
Ans. ≤ 100 nM

Qu. What about this compound? Cc1ccccc1CCn1cnc(-c2cc(C(=O)O)ccn2)c1 [Example 96]
Ans. ≤ 100 nM

Qu. What about this compound? c1cc(-c2nn[nH]n2)cc(-c2cn(CCN3CCCC3)cn2)n1 [Example 63]
Ans. 100 to 1000 nM

Qu. What about this compound? O=C(O)c1ccnc(-c2cn(CCN(Cc3ccc(Cl)cc3)C3CC3)cn2)c1 [Example 85]
Ans. ≤ 100 nM

Qu. What about this compound? COc1ccccc1CNCCn1cnc(-c2cc(C(=O)O)ccn2)c1 [Example 77]
Ans. ≤ 100 nM

Qu. What about this compound? CC(=O)OCn1nnc(-c2ccnc(-c3ncn(Cc4ccccc4Cl)c3-c3ccc(F)cc3)c2)n1 [Example 138]
Ans. 1000 to 10000 nM

Qu. What about this compound? Cn1cnc(-c2cc(C(=O)O)ccn2)c1 [Example 1]
Ans. ≤ 100 nM

Qu. What about this compound? Clc1cccc(Cl)c1Cn1cnc(-c2cc(-c3nn[nH]n3)ccn2)c1 [Example 151]
Ans. ≤ 100 nM
